Values were extracted from ChEMBL document CHEMBL1201862.

molecular target: Zinc finger protein mex-5 (Caenorhabditis elegans); experiment: potency of MEX-5 RNA-binding blockers – biochemical, C. elegans, fluorescence polarization, dose response (AID 1960)
Sequence (Q9XUB2 whole entry): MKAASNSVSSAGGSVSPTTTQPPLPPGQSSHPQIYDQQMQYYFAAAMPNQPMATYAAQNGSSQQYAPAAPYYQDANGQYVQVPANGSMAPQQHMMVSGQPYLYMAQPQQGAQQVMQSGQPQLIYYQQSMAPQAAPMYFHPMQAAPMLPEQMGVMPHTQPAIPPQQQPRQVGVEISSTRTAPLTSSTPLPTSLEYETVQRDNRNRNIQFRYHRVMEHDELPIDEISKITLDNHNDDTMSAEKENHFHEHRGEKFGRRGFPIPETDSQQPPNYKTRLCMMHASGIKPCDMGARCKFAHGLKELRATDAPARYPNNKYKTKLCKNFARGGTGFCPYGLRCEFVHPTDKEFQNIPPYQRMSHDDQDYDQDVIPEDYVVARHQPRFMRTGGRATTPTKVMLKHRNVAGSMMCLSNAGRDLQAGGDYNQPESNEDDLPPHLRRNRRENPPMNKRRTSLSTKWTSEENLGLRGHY
The source made the active and inactive calls. Cut-off read from the data, not from the text of the source: actives have a measured EC50 and inactives only a lower limit.
# key: entry, value: EC50

Worked examples, 3 compounds total:
compound: Cc1n[nH]c(C)c1S(=O)(=O)N1CCCC(C(=O)Nc2ccc(Br)cc2)C1 (centres undefined)
EC50: > 300 µM (not active)
--
compound: CCOc1ccc(S(=O)(=O)Nc2cc(SCC(=O)O)c(O)c3ccccc23)cc1
EC50: 11.9 µM (inconclusive)
--
compound: COC(=O)CCC(=O)OC1(C)C(=O)C=C2C=C(C3CC3)N(c3ccc(CO)cc3)C=C2C1=O (centres undefined)
EC50: 23.5 µM (active)

Moving on to the next compound.
Query: Recorded EC50 of `O=c1oc2ccc3ccccc3c2cc1-c1nc2ccccc2o1` , please.
Response: > 300 µM (inconclusive)
